tested on: NBD1; assay: Aggregation analysis of NBD1 thermal stability by differential static light scattering (DSLS); type: binding, Human; details: compound at 100 μM; ΔTagg versus DMSO control
parameter: DSLS NBD1/3D Human Stability delta-T (° C.) @ 100 (μM)

| compound | system-name | observed-measurement |
| --- | --- | --- |
| CC(O)(c1ccccc1)c1cnc(-c2cccc(Oc3c(F)cc4[nH]ccc4c3C(N)=O)c2)[nH]1 (stereo not drawn) | NBD1 | A (T ≥8° C.) |
| OCc1c(Oc2cccc(-c3ncn(Cc4ccccc4)n3)c2)ccc2[nH]ccc12 | NBD1 | B (4-8° C.) |
| CC(O)(c1ccccc1)c1cnc(-c2cccc(Oc3c(F)cc4[nH]ccc4c3C=C3SC(=O)NC3=O)c2)[nH]1 (stereo not drawn) | NBD1 | A (T ≥8° C.) |
| CC(O)(c1ccccc1)c1cnc(-c2cc(Oc3c(F)cc4[nH]ccc4c3CCC(=O)O)ccc2F)[nH]1 (stereo not drawn) | NBD1 | A (T ≥8° C.) |
| CC(O)c1c(Oc2cccc(-c3nc(C(C)(O)c4ccccc4)c[nH]3)c2)c(F)cc2[nH]ccc12 (stereo not drawn) | NBD1 | A (T ≥8° C.) |
| CC(O)(c1ccccc1)c1cnc(-c2cccc(Oc3ccc4[nH]ccc4c3S(C)(=O)=O)c2)[nH]1 (single isomer, unassigned) [Example 63B] | NBD1 | B (4-8° C.) |
